pIC50 values for the compounds below.
Test system: NmuMG
test name: cells
Type: cell-based, mouse
settings: NmuMG mouse mammary normal epithelial control line; read-out: IC50, NmuMG
pIC50 (log units): -log10 of the concentration in mol/L.

See these solved cases before continuing.
- compound: "CON([C@H]1CC[C@@]2(C)[C@H](CC[C@@H]3[C@@H]2CC[C@]2(C)[C@@H](C4=CC(=O)OC4)CC[C@]32O)C1)[C@@H]1O[C@H](CO)[C@@H](O)[C@@H](O)[C@@H]1O [20β, D-altroside]"
  pIC50: 6.05
- compound: "CON([C@H]1CC[C@@]2(C)[C@H](CC[C@@H]3[C@@H]2CC[C@]2(C)[C@@H](C4=CC(=O)OC4)CC[C@]32O)C1)[C@H]1O[C@@H](CO)[C@@H](O)[C@@H](O)[C@@H]1O [21β, L-galactoside]"
  pIC50: 6.00
- compound: "CON([C@H]1CC[C@@]2(C)[C@H](CC[C@@H]3[C@@H]2CC[C@]2(C)[C@@H](C4=CC(=O)OC4)CC[C@]32O)C1)[C@@H]1O[C@H](CO)[C@@H](O)C[C@H]1O [10β, 3-deoxy-D-glucoside]"
  pIC50: 6.03
- compound: "CON(C1CCC2(C)C(CCC3C2CCC2(C)C(C4=CC(=O)OC4)CCC32O)C1)C1OC(CO)C(O)C(O)C1O [39β, L-taloside]"
  pIC50: 6.30
- compound: "CON([C@H]1CC[C@@]2(C)[C@H](CC[C@@H]3[C@@H]2CC[C@]2(C)[C@@H](C4=CC(=O)OC4)CC[C@]32O)C1)[C@H]1OC[C@H](O)[C@@H](O)[C@H]1O [14β, L-lyxoside]"
  pIC50: 6.05

Let us examine a further case.
Prompt: Item CON([C@H]1CC[C@@]2(C)[C@H](CC[C@@H]3[C@@H]2CC[C@]2(C)[C@@H](C4=CC(=O)OC4)CC[C@]32O)C1)[C@@H]1O[C@H](CO)[C@H](O)[C@H](O)[C@H]1O [22β, D-galactoside] : provide pIC50
Completion: 5.82
